# ASSAY_SUMMARY: Liver microsomal metabolic stability, rat liver microsomes (RLM)
# CONDITION_PARAMETERS: rat, liver microsomes, t1/2 (min) in RLM, 1 μM compound, 1 mg/mL microsomes, NADPH
RECORDED_ENDPOINT: half-life at 1 μM

Past entries and their recorded results:
| COMPOUND | half-life at 1 μM |
| --- | --- |
| COc1ncnc(C2CC2)c1-c1cc2n(n1)CC(C)C(=O)N2Cc1ccc(-c2nc(C(F)(F)F)cn2C)cc1 (centres unmarked) | > 25 min |
| CCn1cc(C(F)(F)F)nc1-c1ccc([C@@H](C)n2c(=O)ccn3nc(-c4c(OC)ncnc4C4CC4)cc23)cc1F | > 25 min |
| CCn1cc(C(F)(F)F)nc1-c1ccc(CN2C(=O)[C@H](C)Cn3nc(-c4c(OC)ncnc4C4CC4)nc32)cc1F (single isomer, unassigned) | > 25 min |
| COc1cc(CN2C(=O)CCn3nc(-c4c(OC)ncnc4C4CC4)cc32)ccc1-c1nc(C(F)(F)F)cn1C(C)C | > 25 min |
| COc1ncnc(C2CC2)c1-c1cc2n(n1)CCC(=O)N2Cc1ccc(-n2nc(C(F)(F)F)cc2OC)cc1 | > 25 min |

For the next question, use this compound.
Enquiry: GET /values?readout=half-life at 1 μM&item= "COc1cc(CN2C(=O)CCn3nc(-c4c(Cl)cnn4C(C)C)nc32)ccc1-c1nc(C(F)(F)F)cn1C(C)C"
Return: > 25 min

* * *

# ASSAY_SUMMARY: ADME solubility determination in PBS at pH 2.0 and pH 7.4
# Assay type: physicochemical
# CONDITION_PARAMETERS: phosphate buffered saline, 25 °C, pH 7.4, aqueous buffer, thermodynamic from solid, PBS pH 7.4, 25° C., read-out: Solubility at pH 7.4
RECORDED_ENDPOINT: solubility at 24 h

Worked examples follow.
| COMPOUND | REPORTED_VALUE |
| --- | --- |
| Cc1cnn(C(C)C)c1-c1cc2n(n1)C(C)CC(=O)N2Cc1ccc(-c2nc(C(F)(F)F)cn2C)cc1 (stereo not shown) [Example 36] | ≥ 10 µM |
| COc1ncnc(C2CC2)c1-c1nc2n(n1)CCC(=O)N2[C@H](C)c1ccc(-c2nc(C(F)(F)F)cn2C(C)C)c(F)c1 [Example 174] | ≥ 10 µM |
| CCn1cc(C(F)(F)F)nc1-c1ccc(CN2C(=O)C(C)Cn3nc(-c4c(OC)ncnc4C4CC4)nc32)cc1F (stereo not shown) [Example 347] | ≥ 10 µM |
| COc1cc(C#N)nn1-c1ccc(CN2C(=O)CCn3nc(-c4c(Cl)cnn4C(C)C)cc32)cc1 [Example 106] | < 10 µM |
| CC(CF)n1cc(C(F)(F)F)nc1-c1ccc(NC2CCCn3nc(-c4c(OC(F)F)ncnc4C4CC4)cc32)cc1 (stereo not shown) [Example 249] | < 10 µM |
| CCn1cc(C(F)(F)F)nc1-c1ccc(CN2C(=O)CCn3nc(-c4c(OC)ncnc4C4CC4)nc32)cc1Cl [Example 175] | ≥ 10 µM |
| CCn1cc(C(F)(F)F)nc1-c1ccc(CN2C(=O)CCn3nc(-c4c(OC)ncnc4C4CC4)nc32)cc1F [Example 44] | < 10 µM |
| CCn1cc(C(F)(F)F)nc1-c1ccc(N[C@@H]2CCCn3nc(-c4c(OC)ncnc4C4CC4)cc32)cc1 (single isomer, unassigned) [Example 243] | < 10 µM |

Enquiry: Give its solubility at 24 h value. Item: Cc1cnn(C(C)C)c1-c1cc2n(n1)CCC(=O)N2Cc1ccc(-c2nc(C(F)(F)F)cn2C(C)C)cc1 [Example 73]
Return: < 10 µM

Enquiry: Field request: solubility at 24 h | item: CCn1cc(C(F)(F)F)nc1-c1ccc([C@H](C)N2C(=O)CCn3nc(-c4c(OC)ncnc4C4CC4)cc32)cc1F [Example 142]
Return: < 10 µM

Enquiry: Suppose we examine the compound COc1cc(CN2C(=O)CCn3nc(-c4c(OC)ncnc4C4CC4)cc32)ccc1-c1nc(C(F)(F)F)cn1C(C)C [Example 108] ; what solubility at 24 h value has been reported?
Return: < 10 µM

Enquiry: Given the entry CCn1cc(C(F)(F)F)nc1-c1ccc([C@@H](C)N2C(=O)CCn3nc(-c4c(OC)ncnc4C4CC4)nc32)cc1 [Example 184] , report its measured solubility at 24 h.
Return: ≥ 10 µM

Enquiry: Returns the measured solubility at 24 h for the input compound. Input: COc1ncnc(C2CC2)c1-c1nc2n(n1)CCC(=O)N2[C@H](C)c1ccc(-c2nc(C(F)(F)F)cn2C)c(F)c1 [Example 197]
Return: ≥ 10 µM

Enquiry: Which value of solubility at 24 h has been reported for CCn1cc(C(F)(F)F)nc1-c1ccc(C(C)n2c(=O)ccn3nc(-c4c(OC)ncnc4C4CC4)nc23)cc1 (stereo not shown) [Example 340] in the records?
Return: ≥ 10 µM

* * *

# ASSAY_SUMMARY: ADME solubility determination in PBS at pH 2.0 and pH 7.4
# Assay type: physicochemical
# CONDITION_PARAMETERS: phosphate buffered saline, 25 °C, pH 7.4, aqueous buffer, thermodynamic from solid, PBS pH 7.4, 25° C., read-out: Solubility at pH 7.4
RECORDED_ENDPOINT: solubility at 24 h

Example results:
| COMPOUND | REPORTED_VALUE |
| --- | --- |
| COc1cc(CN2C(=O)CCn3nc(-c4c(Cl)cnn4C(C)C)cc32)ccc1-c1nc(C(F)(F)F)cn1C(C)C [Example 109] | < 10 µM |
| CCn1cc(C(F)(F)F)nc1-c1ccc([C@H](C)N2C(=O)CCn3nc(-c4c(OC)ncnc4C4CC4)nc32)cc1 [Example 183] | ≥ 10 µM |

Proceed to the following item.
Enquiry: Reported solubility at 24 h, compound CCn1cc(C(F)(F)F)nc1-c1ccc([C@H](C)N2C(=O)CCn3nc(-c4c(OC(F)F)ncnc4C4CC4)nc32)cc1 [Example 209] : ____
Return: < 10 µM

* * *

IC50 values, listed per item
# TARGET_SYSTEM: USP1/UAF1 enzyme (Homo sapiens)
# ASSAY_SUMMARY: USP1/UAF1 deubiquitination assay (ubiquitin-rhodamine 110 substrate)
# CONDITION_PARAMETERS: read-out: USP1 IC50 (Ub-Rho)

Enquiry: What does the data say about its IC50? Entry: "COc1cc(CN2C(=O)CCn3nc(-c4c(Cl)cnn4C(C)C)cc32)ccc1-c1ncccc1Cl"
Return: > 500 nM

Enquiry: Endpoint output: IC50 of "CCn1cc(C(F)(F)F)nc1-c1ccc(Cn2c(=O)ccn3nc(-c4c(OC(F)F)ncnc4C4CC4)nc23)cc1" . Value?
Return: < 100 nM

Enquiry: Endpoint output: IC50 of "CCn1cc(C(F)(F)F)nc1-c1ccc(CN2CCCn3nc(-c4c(OC)ncnc4C4CC4)cc32)cc1F" . Value?
Return: < 100 nM

* * *

half-life at 1 μM: recorded values
# ASSAY_SUMMARY: Liver microsomal metabolic stability, human liver microsomes (HLM)
# CONDITION_PARAMETERS: human, liver microsomes

| COMPOUND | half-life at 1 μM |
| --- | --- |
| COc1cc([C@H](C)N2C(=O)CCn3nc(-c4c(OC)ncnc4C4CC4)cc32)ccc1-c1nc(C(F)(F)F)cn1C(C)C [Example 128] | < 25 min |
| COc1ncnc(C2CC2)c1-c1nc2n(n1)CCC(=O)N2[C@H](C)c1ccc(-c2nc(C(F)(F)F)c(Br)n2C)cc1 [Example 206] | > 25 min |
| CC(C)n1ncc(Cl)c1-c1cc2n(n1)CCC(=O)N2Cc1ccc(-c2nn(C)cc2C#N)cc1 [Example 133] | > 25 min |

Now for a further compound.
Enquiry: # query: half-life at 1 μM of entry Cc1cnn(C(C)C)c1-c1cc2n(n1)CCC(=O)N2Cc1ccc(-c2nc(C(F)(F)F)cn2C)cc1 [Example 6]
Return: < 25 min

* * *

Items are presented alongside their recorded IC50.
# TARGET_SYSTEM: USP1/UAF1 enzyme (Homo sapiens)
# ASSAY_SUMMARY: USP1/UAF1 deubiquitination assay (ubiquitin-rhodamine 110 substrate)
# CONDITION_PARAMETERS: read-out: USP1 IC50 (Ub-Rho)

Enquiry: Kindly state the measured IC50 obtained for COc1ncnc(C2CC2)c1-c1cc2n(n1)CCC(=O)N2[C@H](C)c1ccc(-c2nc(C(F)(F)F)cn2C(C)C)cc1 [Example 123] with USP1/UAF1 enzyme (Homo sapiens).
Return: < 100 nM

* * *

pIC50 for assorted compounds
# TARGET_SYSTEM: USP1/UAF1 enzyme (Homo sapiens, UniProt O94782)
# Sequence (O94782 whole entry): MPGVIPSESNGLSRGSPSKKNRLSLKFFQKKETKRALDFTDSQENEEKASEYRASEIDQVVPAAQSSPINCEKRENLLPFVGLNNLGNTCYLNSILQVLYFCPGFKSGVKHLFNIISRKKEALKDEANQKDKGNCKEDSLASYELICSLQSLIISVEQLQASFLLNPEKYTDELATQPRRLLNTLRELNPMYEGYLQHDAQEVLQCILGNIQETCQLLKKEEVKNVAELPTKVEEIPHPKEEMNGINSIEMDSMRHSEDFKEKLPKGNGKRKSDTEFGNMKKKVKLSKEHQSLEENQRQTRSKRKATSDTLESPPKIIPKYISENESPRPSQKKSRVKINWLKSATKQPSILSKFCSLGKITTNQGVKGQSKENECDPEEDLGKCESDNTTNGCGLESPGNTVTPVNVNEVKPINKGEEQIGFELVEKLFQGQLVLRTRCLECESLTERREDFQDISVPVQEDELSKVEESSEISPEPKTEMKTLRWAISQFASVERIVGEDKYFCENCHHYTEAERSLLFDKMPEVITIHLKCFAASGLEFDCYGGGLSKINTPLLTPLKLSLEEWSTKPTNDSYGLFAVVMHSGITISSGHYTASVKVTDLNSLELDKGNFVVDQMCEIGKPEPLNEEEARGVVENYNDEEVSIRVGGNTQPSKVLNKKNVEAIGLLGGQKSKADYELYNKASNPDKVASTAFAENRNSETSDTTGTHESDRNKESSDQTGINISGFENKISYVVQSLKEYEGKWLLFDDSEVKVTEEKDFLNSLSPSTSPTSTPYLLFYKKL
# Sequence (Q8TAF3 whole entry partner): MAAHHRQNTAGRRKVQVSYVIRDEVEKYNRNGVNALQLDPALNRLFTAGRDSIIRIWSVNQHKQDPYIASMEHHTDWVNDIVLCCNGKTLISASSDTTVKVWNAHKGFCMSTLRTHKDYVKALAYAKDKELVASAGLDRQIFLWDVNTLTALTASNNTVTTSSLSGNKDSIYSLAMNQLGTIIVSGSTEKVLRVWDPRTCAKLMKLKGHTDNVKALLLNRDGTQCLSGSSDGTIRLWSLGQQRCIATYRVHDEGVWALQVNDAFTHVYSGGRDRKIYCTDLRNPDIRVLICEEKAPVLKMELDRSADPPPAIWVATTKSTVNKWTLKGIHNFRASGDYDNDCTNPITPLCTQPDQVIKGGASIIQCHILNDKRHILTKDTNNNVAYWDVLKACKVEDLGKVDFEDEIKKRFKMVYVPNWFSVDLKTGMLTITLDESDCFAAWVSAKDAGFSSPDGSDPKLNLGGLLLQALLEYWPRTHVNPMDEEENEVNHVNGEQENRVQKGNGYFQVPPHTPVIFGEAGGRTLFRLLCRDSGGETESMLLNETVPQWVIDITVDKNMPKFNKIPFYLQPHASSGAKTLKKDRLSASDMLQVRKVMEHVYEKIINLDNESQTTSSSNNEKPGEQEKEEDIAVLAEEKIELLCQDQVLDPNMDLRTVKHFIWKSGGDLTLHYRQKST
# ASSAY_SUMMARY: USP1/UAF1 deubiquitination assay (ubiquitin-rhodamine 110 substrate)
# CONDITION_PARAMETERS: read-out: USP1 IC50 (Ub-Rho)
pIC50: −log10 of the molar value.

| COMPOUND | pIC50 |
| --- | --- |
| COc1ncnc(C)c1-c1cc2n(n1)CCCN2Cc1ccc(-c2nc(C(F)(F)F)cn2C)cc1 [Example 25] | 6.30 to 7.00 |
| COc1ncnc(C2CC2)c1-c1nc2n(Cc3ccc(-c4nc(C(F)(F)F)cn4C)c(F)c3)c(=O)ccn2n1 [Example 386] | > 7.00 |
| CCn1ncc(Cl)c1-c1cc2n(n1)CCC(=O)N2Cc1ccc(-c2nc(C(F)(F)F)cn2C)c(F)c1 [Example 17] | > 7.00 |
| CCn1cc(C(F)(F)F)nc1-c1ccc(CN2C(=O)CCn3nc(-c4c(Cl)cnn4C(C)C)cc32)cn1 [Example 111] | > 7.00 |
| Cn1cc(C(F)(F)F)nc1-c1ccc(CN2C(=O)CCn3nc(-c4c(OC(F)F)ncnc4C4CC4)nc32)cc1 [Example 368] | > 7.00 |

Enquiry: Look up pIC50 for this compound: CCn1cc(C(F)(F)F)nc1-c1ccc(CN2C(=O)CCn3nc(-c4c(OC(F)F)cnn4C(C)C)cc32)cc1F [Example 329]
Return: 6.30 to 7.00

Enquiry: Would you kindly share the measured pIC50 for COc1ncnc(C2(C)CC2)c1-c1cc2n(n1)CCC(=O)N2Cc1ccc(-c2nc(C(F)(F)F)cn2C)c(F)c1 [Example 149] ?
Return: 6.30 to 7.00

Data origin: patent US20230219965A1
